Relative Binding (binding relative to Seq. I. D. No. 8) overview
- STUDY_SYSTEM: extracellular domain of the human erythropoietin receptor (EPO binding protein, EBP) (Homo sapiens, UniProt P19235)
- Construct: made in house; host or cells: E. coli
- Sequence (P19235 25-250 limits assumed): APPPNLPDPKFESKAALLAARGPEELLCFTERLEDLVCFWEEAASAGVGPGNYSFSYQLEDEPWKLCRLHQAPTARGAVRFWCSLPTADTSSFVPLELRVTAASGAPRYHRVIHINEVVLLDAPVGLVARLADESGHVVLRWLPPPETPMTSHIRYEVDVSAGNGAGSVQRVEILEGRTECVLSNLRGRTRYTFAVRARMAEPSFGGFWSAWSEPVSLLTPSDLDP
- EXPERIMENT_DESCRIPTION: Immobilized EBP based [125I]EPO competition binding assay
- TEST_CONTEXT: IC50 in [125I]EPO competition on EBP beads, relative to Seq. I. D. No. 8 (IC50 5 μM)
Bridge positions count the residues as written; N and C are the ends. Ends that are not written are not given here.
REPORTED_METRIC: Relative Binding (binding relative to Seq. I. D. No. 8)

[[record]]
substance = "mPEG/Seq. I. D. No. 8, peak #2: conjugate of peptide SEQ ID NO: 8 with m-SPA-PEG (MW ca. 5000), two PEG molecules coupled; control (GGTYSCHFGPLTWVCKPQGG-NH2; disulfide 6-15 (inferred); not fully specified; also: two mPEG 5000 (m-SPA-PEG) conjugated, sites not given here) [reference compound]"
value = "> 40"

[[record]]
substance = "mPEG/Seq. I. D. No. 8, peak #1: mono-PEG conjugate of peptide SEQ ID NO: 8 with m-SPA-PEG (MW ca. 5000), one PEG coupled; control (GGTYSCHFGPLTWVCKPQGG-NH2; disulfide 6-15 (inferred); not fully specified; also: one mPEG 5000 (m-SPA-PEG) conjugated, site not given here) [reference compound]"
value = 60

[[record]]
substance = "Ac-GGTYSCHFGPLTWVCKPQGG (Ac-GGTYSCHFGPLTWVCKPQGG-NH2; disulfide 6-15 (inferred)) [Seq. I. D. No. 20]"
value = 4

[[record]]
substance = "SAP2/Seq. I. D. No. 8 covalent dimer #2: PEG (SPA2, MW ca. 3400) dimer of peptide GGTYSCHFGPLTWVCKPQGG, lot #2, Example 3 (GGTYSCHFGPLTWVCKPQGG-NH2; disulfide 6-15 (inferred); not fully specified)"
value = 3


----------
EC50 overview
- STUDY_SYSTEM: truncated human EPO receptor (Homo sapiens)
- Construct: expressed in transfected cells; host or cells: FDC-P1/trER cells (murine FDC-P1 derived)
- Sequence (P19235 25-468 limits assumed): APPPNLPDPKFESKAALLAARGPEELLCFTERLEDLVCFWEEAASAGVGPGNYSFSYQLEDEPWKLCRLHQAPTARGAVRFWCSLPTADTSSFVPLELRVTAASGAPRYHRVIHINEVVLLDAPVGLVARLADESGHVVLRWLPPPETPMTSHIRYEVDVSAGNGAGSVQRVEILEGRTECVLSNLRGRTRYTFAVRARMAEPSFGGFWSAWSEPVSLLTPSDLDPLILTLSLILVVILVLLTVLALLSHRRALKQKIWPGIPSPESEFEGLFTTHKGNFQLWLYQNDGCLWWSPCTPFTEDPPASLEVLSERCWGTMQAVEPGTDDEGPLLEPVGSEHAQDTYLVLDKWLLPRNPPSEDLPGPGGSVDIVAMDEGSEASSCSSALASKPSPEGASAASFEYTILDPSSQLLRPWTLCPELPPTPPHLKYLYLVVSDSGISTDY
- EXPERIMENT_DESCRIPTION: EPO dependent cell proliferation assay, FDC-P1/trER cells
- Assay type: cell-based
- TEST_CONTEXT: FDC-P1/trER; [3H]thymidine incorporation; amount giving half of maximal activity obtained with EPO; read-out: EPO-ED50 truncated human receptor
- Description: After 24 hours, the cells were counted, resuspended at 800,000 cells/ml and dispensed at 40,000 cells/well. […] (ca. 2 cell doublings) 1 μCi/well of [^3 H] thymidine was added and the incubation continued for 6 hr at which time the cells were harvested and counted to assess [^3 H]thymidine incorporation as a measure of cell proliferation.
Bridge positions count the residues as written; N and C are the ends. Ends that are not written are not given here.
REPORTED_METRIC: EC50 (µM)

[[record]]
substance = "Ac-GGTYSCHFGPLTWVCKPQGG (Ac-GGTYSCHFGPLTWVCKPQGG-NH2; disulfide 6-15 (inferred)) [Seq. I. D. No. 20]"
reported_metric = "EC50"
value = 0.06

[[record]]
substance = "SAP2/Seq. I. D. No. 8 covalent dimer #2: PEG (SPA2, MW ca. 3400) dimer of peptide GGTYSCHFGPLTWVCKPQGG, lot #2, Example 3 (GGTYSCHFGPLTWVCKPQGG-NH2; disulfide 6-15 (inferred); not fully specified)"
reported_metric = "EC50"
value = 0.002

[[record]]
substance = "GGLYACHMGPMTWVCQPLRG [Seq. I. D. No. 14]"
reported_metric = "EC50"
value = 0.08

[[record]]
substance = "SAP2/Seq. I. D. No. 8 covalent dimer #1: PEG (SPA2, MW ca. 3400) dimer of peptide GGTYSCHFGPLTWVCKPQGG, lot #1, Example 2 (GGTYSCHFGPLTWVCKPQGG-NH2; disulfide 6-15 (inferred); not fully specified)"
reported_metric = "EC50"
value = 0.0015

[[record]]
substance = "SAP2/Seq. I. D. No. 20 covalent dimer: PEG (SPA2) dimer of peptide Ac-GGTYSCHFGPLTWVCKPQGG, Example 5 (Ac-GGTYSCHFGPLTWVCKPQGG-NH2; disulfide 6-15 (inferred); also: PEG (SPA2) covalent dimer)"
reported_metric = "EC50"
value = 0.05


----------
- STUDY_SYSTEM: truncated human EPO receptor (Homo sapiens, UniProt P19235)
- Construct: expressed in transfected cells; host or cells: FDC-P1/trER cells (murine FDC-P1 derived)
- Sequence (P19235 25-468 limits assumed): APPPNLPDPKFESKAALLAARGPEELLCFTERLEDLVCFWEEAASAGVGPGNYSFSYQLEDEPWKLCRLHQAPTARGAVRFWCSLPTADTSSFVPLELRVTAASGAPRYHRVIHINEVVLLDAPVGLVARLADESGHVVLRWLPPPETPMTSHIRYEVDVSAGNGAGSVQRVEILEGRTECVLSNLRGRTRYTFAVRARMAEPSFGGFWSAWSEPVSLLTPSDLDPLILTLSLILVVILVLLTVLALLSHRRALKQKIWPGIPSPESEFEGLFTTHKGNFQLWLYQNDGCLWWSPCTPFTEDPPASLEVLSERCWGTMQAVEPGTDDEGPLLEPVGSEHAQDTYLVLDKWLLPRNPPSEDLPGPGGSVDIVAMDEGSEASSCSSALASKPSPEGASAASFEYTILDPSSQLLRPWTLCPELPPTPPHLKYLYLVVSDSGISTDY
- EXPERIMENT_DESCRIPTION: EPO dependent cell proliferation assay, FDC-P1/trER cells
- Format: cell-based
- TEST_CONTEXT: FDC-P1/trER; [3H]thymidine incorporation; amount giving half of maximal activity obtained with EPO; read-out: EPO-ED50 truncated human receptor
Bridge positions count the residues as written; N and C are the ends. Ends that are not written are not given here.
EC50 overview
REPORTED_METRIC: EC50 (nM)

[[record]]
substance = "SAP2/Seq. I. D. No. 13 covalent dimer: PEG (SPA2) dimer of peptide GGTYSCHFGPLTWVCKPQ, Example 4 (GGTYSCHFGPLTWVCKPQ-NH2; disulfide 6-15 (inferred); also: PEG (SPA2) covalent dimer)"
study_system = "truncated human EPO receptor (Homo sapiens, UniProt P19235)"
unit_name = "nM"
value = 2

[[record]]
substance = "mPEG/Seq. I. D. No. 8, peak #1: mono-PEG conjugate of peptide SEQ ID NO: 8 with m-SPA-PEG (MW ca. 5000), one PEG coupled; control (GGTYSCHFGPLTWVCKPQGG-NH2; disulfide 6-15 (inferred); not fully specified; also: one mPEG 5000 (m-SPA-PEG) conjugated, site not given here) [reference compound]"
study_system = "truncated human EPO receptor (Homo sapiens, UniProt P19235)"
unit_name = "nM"
value = 100

[[record]]
substance = "mPEG/Seq. I. D. No. 8, peak #2: conjugate of peptide SEQ ID NO: 8 with m-SPA-PEG (MW ca. 5000), two PEG molecules coupled; control (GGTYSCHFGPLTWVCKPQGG-NH2; disulfide 6-15 (inferred); not fully specified; also: two mPEG 5000 (m-SPA-PEG) conjugated, sites not given here) [reference compound]"
study_system = "truncated human EPO receptor (Homo sapiens, UniProt P19235)"
unit_name = "nM"
value = 400

